# assayedSystem: UniProt P9WQP7
# Sequence (P9WQP7 whole entry, looked up): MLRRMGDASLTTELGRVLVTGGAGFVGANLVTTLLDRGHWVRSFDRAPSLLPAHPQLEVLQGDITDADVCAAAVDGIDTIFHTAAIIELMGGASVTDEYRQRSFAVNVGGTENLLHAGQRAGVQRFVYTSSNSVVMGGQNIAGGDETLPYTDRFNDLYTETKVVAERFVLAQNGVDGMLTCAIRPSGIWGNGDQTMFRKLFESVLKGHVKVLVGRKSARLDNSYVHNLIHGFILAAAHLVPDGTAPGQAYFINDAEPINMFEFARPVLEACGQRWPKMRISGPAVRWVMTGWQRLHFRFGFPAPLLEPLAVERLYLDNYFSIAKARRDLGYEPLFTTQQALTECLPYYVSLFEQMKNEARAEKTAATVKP
# assayDetails: 3β-hydroxysteroid dehydrogenase in vitro inhibitory activity assay
# Format: biochemical
pIC50: −log10 of the molar value.
reportedProperty: pIC50

{"columns": ["compound", "measuredResult"],
 "data": [
  ["CC(C)(C)c1ccc(C(C)(C)C)c(NC(=O)[C@H]2CCC3C4CNC5=CC(=O)CC[C@]5(C)C4CC[C@@]32C)c1 (stereo partly shown)", "4.30 to 6.00"],
  ["CC(C)CCCC(C)[C@H]1CCC2C3CNC4=CC(=O)CC[C@]4(C)C3CC[C@@]21C (stereo partly shown)", "> 6.00"],
  ["C[C@]12CCC(=O)C=C1NCC1C2CC[C@@]2(C)C1CC[C@@H]2C(=O)Nc1ccc(N2CCOCC2)cc1 (stereo partly shown)", "< 4.30"]
]}

Given the compound CC(C)(C)c1ccc(C(F)(F)F)cc1NC(=O)[C@H]1CCC2C3CNC4=CC(=O)CC[C@]4(C)C3CC[C@@]21C (stereo partly shown) , what is its reported pIC50? 4.30 to 6.00
